- Assayed System: Tyrosine-protein phosphatase non-receptor type 1 (Homo sapiens, UniProt P18031)
- Sequence (P18031 whole entry): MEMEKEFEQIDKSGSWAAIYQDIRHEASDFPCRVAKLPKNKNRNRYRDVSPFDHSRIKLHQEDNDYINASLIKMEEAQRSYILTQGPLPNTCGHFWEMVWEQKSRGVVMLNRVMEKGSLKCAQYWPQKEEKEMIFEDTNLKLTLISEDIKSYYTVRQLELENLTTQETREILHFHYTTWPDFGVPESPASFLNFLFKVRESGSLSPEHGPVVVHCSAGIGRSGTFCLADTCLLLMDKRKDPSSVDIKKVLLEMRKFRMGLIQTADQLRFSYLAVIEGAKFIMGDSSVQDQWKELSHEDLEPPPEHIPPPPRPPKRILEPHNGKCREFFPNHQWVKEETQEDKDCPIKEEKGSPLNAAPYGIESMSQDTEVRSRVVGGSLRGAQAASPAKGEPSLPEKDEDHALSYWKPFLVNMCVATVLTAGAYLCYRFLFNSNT
Experimental Readout: IC50 (µM)
Note: unit µM is implicit; provide only the numeric part.

I am curious: what IC50 value has been reported for CC[C@]12CCCC(C)(C)[C@@H]1CC[C@]1(C)[C@@H]2C[C@@H](O)[C@]2(C)C3=C(CC[C@@H]12)[C@@H](C)OC3=O ?
7.45
